This collection of values is drawn from PubChem BioAssay AID1963873.

System: 276233-004-R-J1-PDC KRAS spheroids with HUVEC/MSC, viability;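 note: cells exposed to agents for seven days before viability read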
procedureText: Anticancer human tumor 276233-004-R-J1-PDC patient-derived colon adenocarcinoma cell line growth inhibition [KRAS2]
measurementContext: curve of first compound; second compound 10 µM
assayMetric: IC50

Exam item: Param item = COC(=O)c1ccc2c(C(=Nc3ccc(N(C)C(=O)CN4CCN(C)CC4)cc3)c3ccccc3)c(O)[nH]c2c1 + CC1OCC2(CCN(c3cnc(Sc4ccnc(N)c4Cl)c(N)n3)CC2)C1N ; retrieve measured IC50.
Marked response: < 31.6 nM

Exam item: And what about the compound CN(C)C/C=C/C(=O)Nc1cc2c(Nc3ccc(F)c(Cl)c3)ncnc2cc1O[C@H]1CCOC1 + CNCc1ccccc1-c1csc(C(C)Nc2nc(C)nc3cc(OC)c(OC)cc23)c1 ?
Marked response: < 0.316 nM

Exam item: And what about the compound COc1cc2nccc(Oc3ccc(NC(=O)C4(C(=O)Nc5ccc(F)cc5)CC4)cc3)c2cc1OC + COc1cc2nc(C)nc(NC(C)c3cc(N)cc(C(F)(F)F)c3)c2cc1OC1CCOC1 ?
Marked response: < 31.6 nM

Exam item: And what about the compound CC(C)n1nc(-c2ccc3oc(N)nc3c2)c2c(N)ncnc21 + CNCc1ccccc1-c1csc(C(C)Nc2nc(C)nc3cc(OC)c(OC)cc23)c1 ?
Marked response: < 0.316 nM

Exam item: And what about the compound CCNC(=O)CC1N=C(c2ccc(Cl)cc2)c2cc(OC)ccc2-n2c(C)nnc21 (stereo not drawn) + CNCc1ccccc1-c1csc(C(C)Nc2nc(C)nc3cc(OC)c(OC)cc23)c1 ?
Marked response: < 31.6 nM

Exam item: And what about the compound COC(=O)c1ccc2c(C(=Nc3ccc(N(C)C(=O)CN4CCN(C)CC4)cc3)c3ccccc3)c(O)[nH]c2c1 + C=CC(=O)N1CCN(c2nc(=O)n(-c3c(C)ccnc3C(C)C)c3nc(-c4c(O)cccc4F)c(F)cc23)C(C)C1 ?
Marked response: 3360 nM

Exam item: And what about the compound CC1(C)CCC(CN2CCN(c3ccc(C(=O)NS(=O)(=O)c4ccc(NCC5CCOCC5)c([N+](=O)[O-])c4)c(Oc4cnc5[nH]ccc5c4)c3)CC2)=C(c2ccc(Cl)cc2)C1 + CC1OCC2(CCN(c3cnc(Sc4ccnc(N)c4Cl)c(N)n3)CC2)C1N ?
Marked response: 3200 nM

Exam item: And what about the compound O=C(c1cc(Cc2n[nH]c(=O)c3ccccc23)ccc1F)N1CCN(C(=O)C2CC2)CC1 + COc1cc2nc(C)nc(NC(C)c3cc(N)cc(C(F)(F)F)c3)c2cc1OC1CCOC1 ?
Marked response: 110 nM

Exam item: And what about the compound Cn1nccc1Nc1nccc(-c2cc3c(s2)C(C)(C)N(CCN2CCOCC2)C3=O)n1 + C=CC(=O)N1CCN(c2nc(=O)n(-c3c(C)ccnc3C(C)C)c3nc(-c4c(O)cccc4F)c(F)cc23)C(C)C1 ?
Marked response: > 10000 nM

Exam item: And what about the compound Cn1ncnc1[C@H]1c2n[nH]c(=O)c3cc(F)cc(c23)N[C@@H]1c1ccc(F)cc1 + COc1cc2nc(C)nc(NC(C)c3cc(N)cc(C(F)(F)F)c3)c2cc1OC1CCOC1 ?
Marked response: < 0.316 nM

Exam item: And what about the compound CCNC(=O)CC1N=C(c2ccc(Cl)cc2)c2cc(OC)ccc2-n2c(C)nnc21 (stereo not drawn) + CC1OCC2(CCN(c3cnc(Sc4ccnc(N)c4Cl)c(N)n3)CC2)C1N ?
Marked response: 530 nM

Exam item: And what about the compound CCN1CCN(Cc2ccc(Nc3ncc(F)c(-c4cc(F)c5nc(C)n(C(C)C)c5c4)n3)nc2)CC1 + COc1cc2nc(C)nc(NC(C)c3cc(N)cc(C(F)(F)F)c3)c2cc1OC1CCOC1 ?
Marked response: < 3.16 nM

Exam item: And what about the compound COc1cc2nccc(Oc3ccc(NC(=O)C4(C(=O)Nc5ccc(F)cc5)CC4)cc3)c2cc1OC + CNCc1ccccc1-c1csc(C(C)Nc2nc(C)nc3cc(OC)c(OC)cc23)c1 ?
Marked response: < 31.6 nM
